# Test system: LNCaP cells binding to huBMEC
# EXPERIMENT NOTES: Adhesion of 3H-thymidine labeled LNCaP cancer cells to huBMEC lawns in presence of peptide
# Type: cell-based, human
# ASSAY SETUP: LNCaP cells on huBMEC, peptide 100 μM, 2H
Assign PERCENT OF CONTROL AT 2H ADHESION to each entry below.

Give the reported PERCENT OF CONTROL AT 2H ADHESION for this substance. ALA- THR- TRP-SER-HIS-HIS-LEU-SER-SER-ALA-GLY-LEU (ATWSHHLSSAGL; listed as Homo sapiens) [R3]
3.8 % of control

Return reported PERCENT OF CONTROL AT 2H ADHESION. Input substance: ASN- TYR-SER-HIS-LEU-ARG- VAL-LYS-LEU-PRO-THR-PRO (NYSHLRVKLPTP; listed as Homo sapiens) [R1]
9.9 % of control

Answer with the recorded PERCENT OF CONTROL AT 2H ADHESION of SER-GLY-HIS-GLN-LEU-LEU-LEU-ASN-LYS-MET-PRO-ASN (SGHQLLLNKMPN; listed as Homo sapiens) [L13] only.
2.8 % of control

Let me know recorded PERCENT OF CONTROL AT 2H ADHESION for ASP-SER-SER-ASN-PRO-ILE-PHE- TRP-ARG-PRO-SER-SER (DSSNPIFWRPSS; listed as Homo sapiens) [L19] , thanks.
4.1 % of control
